# TEST_SUMMARY: Cerebellar kinetics by PET, single-tissue compartment model
# STATED_CONDITIONS: rhesus monkey, in vivo, DVND (nondisplaceable distribution volume, K1/k2), cerebellum, subject M4
PROPERTY_NAME: Kp
Field format: numeric only.

Report Kp for COc1ccccc1N1CCN(CCN(C(=O)c2ccc(F)cc2)c2ccccn2)CC1 [[F-18]MPPF] please.
2.89
